Taken from patent US7476679B2.

Record form. Attribute: δ/κ. Fill in for each entry.
target: human kappa opioid receptor (Homo sapiens); construct: expressed in transfected cells; host or cells: CHO cells (membrane homogenates); assay: Inhibition of agonist (U69,593) stimulated [35S]GTPγS binding, apparent affinity (Ke); assay type: biochemical; settings: ratio of Ke values, δ over κ
Sequence (P41145 whole entry): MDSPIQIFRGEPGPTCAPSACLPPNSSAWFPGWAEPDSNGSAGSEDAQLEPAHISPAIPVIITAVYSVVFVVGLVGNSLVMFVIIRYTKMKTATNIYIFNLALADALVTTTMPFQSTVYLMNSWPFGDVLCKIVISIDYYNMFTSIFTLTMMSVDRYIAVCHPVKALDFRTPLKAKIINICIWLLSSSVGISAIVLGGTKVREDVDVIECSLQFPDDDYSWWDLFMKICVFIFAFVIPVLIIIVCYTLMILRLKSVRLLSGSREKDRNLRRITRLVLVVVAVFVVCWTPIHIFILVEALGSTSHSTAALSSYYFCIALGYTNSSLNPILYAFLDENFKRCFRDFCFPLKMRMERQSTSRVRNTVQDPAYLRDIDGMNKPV
Answers are plain numbers.

The following compounds have reported results that may help.
[
  {
    "compound": "CC12CCCCC1(c1cccc(O)c1)CCN(CCc1ccccc1)C2 (stereo not shown)",
    "δ/κ": 7
  },
  {
    "compound": "CC12CCCCC1(c1cccc(O)c1)CCN(CCCc1ccccc1)C2 (stereo not shown)",
    "δ/κ": 12
  },
  {
    "compound": "CC12CCC(NC(=O)c3cc4ccccc4s3)CC1(c1cccc(O)c1)CCN(CCCc1ccccc1)C2 (stereo not shown)",
    "δ/κ": 2
  }
]

Kindly give each listed record's δ/κ.
1. CC12CCC(NC(=O)CCN3CCc4ccccc4C3)CC1(c1cccc(O)c1)CCN(CCCc1ccccc1)C2 (stereo not shown)
2. CC12CCC(NC(=O)CCN3CCCCC3)CC1(c1cccc(O)c1)CCN(CCCc1ccccc1)C2 (stereo not shown)
3. CC12CCC(NC(=O)C3(c4ccccc4)CCCC3)CC1(c1cccc(O)c1)CCN(CCCc1ccccc1)C2 (stereo not shown)
4. CN1CCC2(c3cccc(O)c3)CCCCC2(C)C1 (stereo not shown)

Reply text:
21
46
3
141
